Tested on: NCI-H460
measured_endpoint: GI50 (µM)

• O=C(Nc1nc2ccc(F)cc2s1)c1cccnc1Nc1ccc(Cl)cc1 = 1.97
• O=C(Nc1nc2ccc(F)cc2s1)c1cccnc1Nc1ccc(Cl)cc1Cl = 2.56
• COc1ccc2nc(NC(=O)c3cccnc3Nc3cc(OC)c(OC)c(OC)c3)sc2c1 = 7.42
• COc1cc(Nc2ncccc2C(=O)Nc2nc3ccc(F)cc3s2)cc(OC)c1OC = 3.3

* * *

Tested on: MDA-MB-231/ATCC
test_protocol: NCI SRB GI50 screen
Assay type: cell-based
study_conditions: Homo sapiens, Breast, 48 hrs exposure, read-out: Growth Inhibition GI50 MDA-MB-231/ATCC
Listing: GI50 of selected molecules
measured_endpoint: GI50 (µM)

* O=C(Nc1nc2ccc(F)cc2s1)c1cccnc1Nc1ccc(Cl)cc1Cl | 3.41
* O=C(Nc1nc2ccc(F)cc2s1)c1cccnc1Nc1ccc(Cl)cc1 | 1.85
* COc1ccc2nc(NC(=O)c3cccnc3Nc3cc(OC)c(OC)c(OC)c3)sc2c1 | 5.62
* COc1cc(Nc2ncccc2C(=O)Nc2nc3ccc(F)cc3s2)cc(OC)c1OC | 4.61

* * *

Test system: SiHa
test_protocol: SRB percentage growth inhibition (NCI protocol)
Assay type: cell-based
study_conditions: Homo sapiens, 48 hrs exposure
Note to self: values exactly at 40% are Met. So inhibition at 10 µM at or above 40% is Met, below is Not met.

* O=C(Nc1nc2ccc([N+](=O)[O-])cc2s1)c1cccnc1Nc1ccc(F)cc1 | Not met
* O=C(Nc1nc2ccc([N+](=O)[O-])cc2s1)c1cccnc1Nc1ccccc1 | Met
* COc1ccc(Nc2ncccc2C(=O)Nc2nc3ccc([N+](=O)[O-])cc3s2)cc1 | Met
* O=C(Nc1nc2ccc([N+](=O)[O-])cc2s1)c1cccnc1Nc1ccc(Cl)cc1Cl | Not met
* CC(=O)O[C@H]1C(=O)[C@@]2(C)[C@H]([C@H](OC(=O)c3ccccc3)[C@]3(O)C[C@H](OC(=O)[C@H](O)[C@@H](NC(=O)c4ccccc4)c4ccccc4)C(C)=C1C3(C)C)[C@]1(OC(C)=O)CO[C@@H]1C[C@@H]2O [Pac, paclitaxel, reference compound] | Met
* O=C(Nc1nc2ccc([N+](=O)[O-])cc2s1)c1cccnc1Nc1cc(F)c(F)c(F)c1 | Met
* O=c1[nH]cc(F)c(=O)[nH]1 [Compound 5-FU, 5-fluorouracil, reference compound] | Met

* * *

System: A549
test_protocol: SRB percentage growth inhibition (NCI protocol)
Assay type: cell-based
study_conditions: Homo sapiens, 1 μM, 48 hrs exposure
Collected inhibition at 1 µM values appear next to each entry.
measured_endpoint: inhibition at 1 µM (%)

* O=C(Nc1nc2ccc([N+](=O)[O-])cc2s1)c1cccnc1Nc1ccccc1 | 23
* O=C(Nc1nc2ccc([N+](=O)[O-])cc2s1)c1cccnc1Nc1cc(F)c(F)c(F)c1 | 27
* COc1ccc(Nc2ncccc2C(=O)Nc2nc3ccc([N+](=O)[O-])cc3s2)cc1 | 27
* O=C(Nc1nc2ccc([N+](=O)[O-])cc2s1)c1cccnc1Nc1ccc(Cl)cc1Cl | 15
* O=C(Nc1nc2ccc([N+](=O)[O-])cc2s1)c1cccnc1Nc1ccc(F)cc1 | 27
* CC(=O)O[C@H]1C(=O)[C@@]2(C)[C@H]([C@H](OC(=O)c3ccccc3)[C@]3(O)C[C@H](OC(=O)[C@H](O)[C@@H](NC(=O)c4ccccc4)c4ccccc4)C(C)=C1C3(C)C)[C@]1(OC(C)=O)CO[C@@H]1C[C@@H]2O [Pac, paclitaxel, reference compound] | 34
